subject of test: MAGI2 PDZ 2 (Homo sapiens, UniProt Q86UL8)
Construct: made in house; host or cells: E. coli
Sequence (Q86UL8 426-510 limits assumed): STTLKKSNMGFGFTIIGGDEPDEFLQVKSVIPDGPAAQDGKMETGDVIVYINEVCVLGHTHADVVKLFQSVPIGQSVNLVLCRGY
measurement notes: Holdup assay, MAGI2-2
Type: binding
setup conditions: MAGI2-2
Method: The holdup assay was performed on a Tecan freedom Evo200 robot with 384-well plates in singlicate for the three 11-mer PTEN variants and the 13-mer PTEN peptide as described in [31, 32]. […] After a sufficient time to reach complex equilibrium (15 min.), a fast and mild filtration step is performed and the tag-PDZ concentrations were measured by capillary electrophoresis instrument (LabChip GXII, PerkinElmer, Massachusets, USA). […]
*1 amine or outer side, *2 acyl side, *3 side chain or, on linkers, in order; H or OH if unused. Where a SMILES comes first, the peptide text is derived from it. The star is where a group is joined. X1 = O=C(CCCC[C@@H]1SC[C@@H]2NC(=O)N[C@@H]21)NCCCOCCOCCOCCCN*; Suc = O=C(CCC(=O)[*:2])[*:1]
Below, each entry is listed with its recorded BI.
Write no unit; give the number alone.

compound	readout value
CC[C@H](C)[C@H](NC(=O)[C@H](CCC(N)=O)NC(=O)[C@@H](NC(=O)[C@H](Cc1c[nH]cn1)NC(=O)[C@H](CCC(N)=O)NC(=O)[C@H](CC(=O)O)NC(=O)[C@H](CCC(=O)O)NC(=O)[C@H](CC(=O)O)NC(=O)CCC(=O)NCCCOCCOCCOCCCNC(=O)CCCC[C@@H]1SC[C@@H]2NC(=O)N[C@@H]21)[C@@H](C)O)C(=O)N[C@H](C(=O)N[C@@H](CCCNC(=N)N)C(=O)N[C@H](C(=O)O)C(C)C)[C@@H](C)O [PTEN_KR] ({X1-Suc}-DEDQHTQITRV-OH)	0.443
CC[C@H](C)[C@H](NC(=O)[C@H](CCC(N)=O)NC(=O)[C@@H](NC(=O)[C@H](Cc1c[nH]cn1)NC(=O)[C@H](CCC(N)=O)NC(=O)[C@H](CC(=O)O)NC(=O)[C@H](CCC(=O)O)NC(=O)[C@H](CC(=O)O)NC(=O)CCC(=O)NCCCOCCOCCOCCCNC(=O)CCCC[C@@H]1SC[C@@H]2NC(=O)N[C@@H]21)[C@@H](C)O)C(=O)N[C@H](C(=O)N[C@@H](CCCCN)C(=O)N[C@H](C(=O)O)C(C)C)[C@@H](C)O [PTEN_11]	0.18

Attention now shifts to the item below.
Q: Reported BI for CC[C@H](C)[C@H](NC(=O)[C@H](CCC(N)=O)NC(=O)[C@@H](NC(=O)[C@H](Cc1c[nH]cn1)NC(=O)[C@H](CCC(N)=O)NC(=O)[C@H](CC(=O)O)NC(=O)[C@H](CCC(=O)O)NC(=O)[C@H](CC(=O)O)NC(=O)[C@H](Cc1ccccc1)NC(=O)[C@@H]1CCCN1C(=O)CCC(=O)NCCCOCCOCCOCCCNC(=O)CCCC[C@@H]1SC[C@@H]2NC(=O)N[C@@H]21)[C@@H](C)O)C(=O)N[C@H](C(=O)N[C@@H](CCCCN)C(=O)N[C@H](C(=O)O)C(C)C)[C@@H](C)O [PTEN_13] ({X1-Suc}-PFDEDQHTQITKV-OH) : what is it?
Ans: 0.082

Source listed as paper PMC7774954.
